Here, each record is paired with measured Emax data.
# assay_target: D1 dopamine receptor (Homo sapiens, UniProt P21728)
# Construct: expressed in transfected cells
# Sequence (P21728 whole entry): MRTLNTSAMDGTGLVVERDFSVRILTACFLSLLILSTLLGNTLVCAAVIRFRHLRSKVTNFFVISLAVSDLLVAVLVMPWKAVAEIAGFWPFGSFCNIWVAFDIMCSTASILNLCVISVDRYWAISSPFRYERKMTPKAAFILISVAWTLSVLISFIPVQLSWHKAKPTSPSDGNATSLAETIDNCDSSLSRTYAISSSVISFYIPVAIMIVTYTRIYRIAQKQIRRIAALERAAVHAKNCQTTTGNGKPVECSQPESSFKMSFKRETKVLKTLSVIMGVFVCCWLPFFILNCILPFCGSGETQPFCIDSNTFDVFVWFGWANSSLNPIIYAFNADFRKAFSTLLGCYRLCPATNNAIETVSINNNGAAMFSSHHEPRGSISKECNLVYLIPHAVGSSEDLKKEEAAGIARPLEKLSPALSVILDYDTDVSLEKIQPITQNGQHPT
# assay_explanation: Ca2+ flux functional assay at D1
# Type: cell-based
# condition: agonist, max dose, read-out: D1 % Act @ Max Dose
Your answer is read as %, so omit the unit and give the number.

Query block: What value of Emax has been recorded for this entry: CCN(CC)C(=O)[C@@H]1C=C2c3cccc4[nH]cc(c34)C[C@H]2N(CCCF)C1
Result block: 114

Query block: Which Emax is reported for this compound? CCN(CC)C(=O)[C@@H]1C=C2c3cccc4[nH]cc(c34)C[C@H]2N(C)C1 [LSD, lysergic acid diethylamide, reference compound]
Result block: 94.9

Query block: Return reported Emax; argument: CCCN1C[C@H](C(=O)NC(CC)CC)C=C2c3cccc4[nH]cc(c34)C[C@H]21
Result block: 93.1

Others:
Query block: Which Emax reading was recorded for the compound CCN(CC)C(=O)[C@@H]1C=C2c3cccc4[nH]cc(c34)C[C@H]2N(Cc2ccccc2OC)C1 ?
Result block: 114

Query block: What does the data say about its Emax? Entry: CCCN1C[C@H](C(=O)N(CC)CC)C=C2c3cccc4[nH]cc(c34)C[C@H]21
Result block: 109

Query block: Any idea what its Emax is? The compound is CCCN1C[C@H](C(=O)N2[C@@H](C)C[C@@H]2C)C=C2c3cccc4[nH]cc(c34)C[C@H]21
Result block: 114

Query block: Could you share which Emax value was measured for CCCN1C[C@H](C(=O)N[C@H](C)CC)C=C2c3cccc4[nH]cc(c34)C[C@H]21 ?
Result block: 121

###

# assay_explanation: in vitro
# Type: in vitro ADME, human
# condition: HLM 0.50 mg/mL, NADPH 1 mM, 1 μM compound, pH 7.4, 37° C., 60 min
Category key, based on recorded Intrinsic clearance (Clint): LOW: < 80 µL/min/mg; MEDIUM: ≥ 80 µL/min/mg and < 200 µL/min/mg; HIGH: ≥ 200 µL/min/mg

Consider the following illustrative entries.
Query block: Please let me know in which category the item CCN(CC)C(=O)[C@@H]1C=C2c3cccc4[nH]cc(c34)C[C@H]2N(Cc2ccnc(OC)c2)C1 [Compound 79] belongs.
Result block: LOW

Query block: Class? Entry: CCN(CC)C(=O)[C@@H]1C=C2c3cccc4[nH]cc(c34)C[C@H]2N(CCc2ccccn2)C1 [Compound 23]
Result block: MEDIUM

Query block: Which bin, given its Intrinsic clearance (Clint), does CCN(CC)C(=O)[C@@H]1C=C2c3cccc4[nH]cc(c34)C[C@H]2N(Cc2ccc(OC)cc2)C1 [Compound 19] occupy?
Result block: MEDIUM

Query block: Hi, small favor: classify CCN(CC)C(=O)[C@@H]1C=C2c3cccc4[nH]cc(c34)C[C@H]2NC1 [Compound 83] by its Intrinsic clearance (Clint) when you get a moment.
Result block: LOW

Query block: Category of C[C@H]1C[C@H](C)N1C(=O)[C@@H]1C=C2c3cccc4[nH]cc(c34)C[C@H]2N(C)C1 [Int11] , please.
Result block: LOW

Others:
Query block: Which of the defined bands does the recorded Intrinsic clearance (Clint) of CCN(CC)C(=O)[C@@H]1C=C2c3cccc4[nH]cc(c34)C[C@H]2N(Cc2ccccn2)C1 [Compound 22] sit within?
Result block: LOW

Query block: Class? Entry: CN1C[C@H](C(=O)N2CCCC2)C=C2c3cccc4[nH]cc(c34)C[C@H]21 [Int22]
Result block: LOW

Query block: Tag the class for [2H]C([2H])([2H])Oc1cccc(CN2C[C@H](C(=O)N(CC)CC)C=C3c4cccc5[nH]cc(c45)C[C@H]32)c1 [Compound 56]
Result block: MEDIUM

Query block: Any idea which band CCN(CC)C(=O)[C@@H]1C=C2c3cccc4[nH]cc(c34)C[C@H]2N(CCc2ccc(OC)cc2)C1 [Compound 21] is in?
Result block: HIGH

Query block: The entry to classify is CCN(CC)C(=O)[C@@H]1C=C2c3cccc4[nH]cc(c34)C[C@H]2N(Cc2ccccc2O)C1 [Compound 16] ; which class holds it?
Result block: HIGH

Query block: In plain terms, what class is CCN(CC)C(=O)[C@@H]1C=C2c3cccc4[nH]cc(c34)C[C@H]2N(Cc2cccc(OC)c2)C1 [Compound 18] ?
Result block: MEDIUM

Query block: Which band does CCN(CC)C(=O)[C@@H]1C=C2c3cccc4[nH]cc(c34)C[C@H]2N(CCc2cccc(OC)c2)C1 [Compound 20] fall in?
Result block: HIGH

Query block: Exam item: assign CCN(CC)C(=O)[C@@H]1C=C2c3cccc4[nH]cc(c34)C[C@H]2N(Cc2ccccc2OC)C1 [Compound 10] to the correct category.
Result block: MEDIUM

Query block: Looking at CCN(CC)C(=O)[C@@H]1C=C2c3cccc4[nH]cc(c34)C[C@H]2N(CCc2ccccc2OC)C1 [Compound 11] , which class would you pick?
Result block: HIGH

Query block: # bin label for CCN(CC)C(=O)[C@@H]1C=C2c3cccc4[nH]c(Br)c(c34)C[C@H]2N(C)C1 [Compound 35]
Result block: LOW
